system: sera from patients infected with group O HIV-1 retroviruses; assay: Immunoenzymatic test: Test No. 1 (immunoreactivity of peptides coated on microplates); type: binding, human; settings: serum 6512*; cyclized peptide 2 μg/ml
No end group written: not given here.
reported.endpoint: ABSORBANCE

seq	assay.value
LLNLWGCKNRAICYTSVKWNKT (cysteine pairing not given here) [VAU 22 AA, reference compound]	0.120
LLSLWGCRGKAVCYTSVQWNET [PEPTIDE No. 1 (2B)]	>
LLSLWGCRGRLVCYTSVQWNET [PEPTIDE No. 2 (3B)]	0.785
LLSSWGCKGRLVCYTSVQWNET [PEPTIDE No. 3 (4B)]	0.746
RLLALETFIEENELLNLWGCKNRAICYTSVKWNKT (cysteine pairing not given here) [VAU 35 AA, reference compound]	0.174
